- Test system: OVCAR8
- measurement_notes: drug sensitivity score (DSS2) on cancer cell count; higher = more sensitive; extreme values may be limits of the assay
- cond: co-cultured fibroblast: WI38; 72 h
Reported drug sensitivity score values for the following compounds.

- compound: "CC(C)[C@@H](CS(=O)(=O)C(C)C)N1C(=O)[C@@](C)(CC(=O)O)C[C@H](c2cccc(Cl)c2)[C@H]1c1ccc(Cl)cc1 [AMG-232]"
  drug sensitivity score, DSS: 0
- compound: "COc1cc([C@@H]2c3cc4c(cc3[C@@H](O[C@@H]3O[C@@H]5CO[C@@H](C)O[C@H]5[C@H](O)[C@H]3O)[C@H]3COC(=O)[C@H]23)OCO4)cc(OC)c1O [Etoposide]"
  drug sensitivity score, DSS: 13.1
- compound: "CC(C)(C)Cn1c(N)nc2ccc(-c3[nH]c(C(C)(C)C)nc3-c3ccc(F)cc3)nc21 [Ralimetinib]"
  drug sensitivity score, DSS: 0
- compound: "COc1cc(OC)c(/C=C/S(=O)(=O)Cc2ccc(OC)c(NCC(=O)O)c2)c(OC)c1 [Rigosertib]"
  drug sensitivity score, DSS: 28.9
- compound: "NC(=O)/C(=C/n1cnc(-c2cc(C(F)(F)F)cc(C(F)(F)F)c2)n1)c1cncnc1 [Eltanexor]"
  drug sensitivity score, DSS: 24.4
- compound: "C=CC(=O)Nc1cccc(Oc2nc(Nc3ccc(N4CCN(C)CC4)cc3)nc3ccsc23)c1 [Olmutinib]"
  drug sensitivity score, DSS: 0
- compound: "C1=N/C2=N/c3ccc(OCCN4CCCC4)c(c3)COC/C=C/COCc3cccc(c3)C(=C1)N2 [Pacritinib]"
  drug sensitivity score, DSS: 5.6
- compound: "S=C(NCc1ccc2c(c1)OCO2)N1CCN(c2ncnc3c2oc2ccccc23)CC1 [Amuvatinib]"
  drug sensitivity score, DSS: 0
- compound: "CCNC(=O)c1noc(-c2cc(C(C)C)c(O)cc2O)c1-c1ccc(CN2CCOCC2)cc1 [Luminespib]"
  drug sensitivity score, DSS: 29.8
- compound: "CN(CC(=O)N(Cc1ccc(C2CCCCC2)cc1)c1ccc(C(=O)O)cc1)S(=O)(=O)c1c(F)c(F)c(F)c(F)c1F [SH-4-54]"
  drug sensitivity score, DSS: 6
- compound: "CN(Cc1cnc2nc(N)nc(N)c2n1)c1ccc(C(=O)N[C@@H](CCC(=O)O)C(=O)O)cc1 [Methotrexate]"
  drug sensitivity score, DSS: 12.4
- compound: "N.N.[Cl][Pt][Cl] [Cisplatin]"
  drug sensitivity score, DSS: 9.4
- compound: "Cc1cc(Nc2ncnc3ccc(NC4=NC(C)(C)CO4)cc23)ccc1Oc1ccn2ncnc2c1 [Tucatinib]"
  drug sensitivity score, DSS: 0
- compound: "COc1cc(C(=O)O)ccc1NC(=O)[C@@H]1N[C@@H](CC(C)(C)C)[C@](C#N)(c2ccc(Cl)cc2F)[C@H]1c1cccc(Cl)c1F [Idasanutlin]"
  drug sensitivity score, DSS: 4.2
- compound: "CC[C@H](C)C(=O)O[C@H]1C[C@H](O)C=C2C=C[C@H](C)[C@H](CC[C@@H](O)C[C@@H](O)CC(=O)O)[C@H]21 [Pravastatin]"
  drug sensitivity score, DSS: 1.9
- compound: "Cc1cnc(-c2ccccc2C(C)C)nc1NCc1ccc(-n2ccnn2)cc1 [ML323]"
  drug sensitivity score, DSS: 0
- compound: "Nc1nc2[nH]cnc2c(=S)[nH]1 [Thioguanine]"
  drug sensitivity score, DSS: 7.3
- compound: "COc1cc2c(Oc3ccc(NC(=O)C4(C(=O)Nc5ccc(F)cc5)CC4)cc3F)ccnc2cc1OCCCN1CCOCC1 [Foretinib]"
  drug sensitivity score, DSS: 5.6
- compound: "Cc1cccc(-c2nn3c(c2-c2ccnc4ccc(C(N)=O)cc24)CCC3)n1 [Galunisertib]"
  drug sensitivity score, DSS: 0
- compound: "C#Cc1cccc(Nc2ncnc3cc4c(cc23)OCCOCCOCCO4)c1 [Icotinib]"
  drug sensitivity score, DSS: 0
- compound: "COc1cc2ncnc(Nc3cccc(Cl)c3F)c2cc1OC(=O)N1CCN(C)C[C@H]1C [AZD3759]"
  drug sensitivity score, DSS: 3.6
- compound: "Oc1nc(-c2ccc(C(F)(F)F)cc2)nc2c1CSCC2 [XAV-939]"
  drug sensitivity score, DSS: 0.1
- compound: "CC(C)C[C@H](NC(=O)[C@H](CCc1ccccc1)NC(=O)CN1CCOCC1)C(=O)N[C@@H](Cc1ccccc1)C(=O)N[C@@H](CC(C)C)C(=O)[C@@]1(C)CO1 [Carfilzomib]"
  drug sensitivity score, DSS: 18
- compound: "CCCCCCCCCCCCCCCCOP(=O)([O-])OCC[N+](C)(C)C [Miltefosine]"
  drug sensitivity score, DSS: 7.3
- compound: "NC(=O)NO [Hydroxyurea]"
  drug sensitivity score, DSS: 7.3
- compound: "CCC(C)n1ncn(-c2ccc(N3CCN(c4ccc(OCC5COC(Cn6cncn6)(c6ccc(Cl)cc6Cl)O5)cc4)CC3)cc2)c1=O (stereo unspecified) [Itraconazole]"
  drug sensitivity score, DSS: 11.5
- compound: "Cn1cnc2c(F)c(Nc3ccc(Br)cc3Cl)c(C(=O)NOCCO)cc21 [Selumetinib]"
  drug sensitivity score, DSS: 0
- compound: "Oc1ncnc2[nH]ncc12 [Allopurinol]"
  drug sensitivity score, DSS: 0
- compound: "Cc1cc(Nc2nc(N[C@@H](C)c3ncc(F)cn3)ncc2Cl)[nH]n1 [AZD1480]"
  drug sensitivity score, DSS: 0
- compound: "CN[C@@H]1C[C@H]2O[C@@](C)([C@@H]1OC)n1c3ccccc3c3c4c(c5c6ccccc6n2c5c31)C(=O)N[C@H]4O [UCN-01]"
  drug sensitivity score, DSS: 14.3
- compound: "COC[C@H](NC(=O)c1cnc(C)s1)C(=O)N[C@@H](COC)C(=O)N[C@@H](Cc1ccccc1)C(=O)[C@@]1(C)CO1 [Oprozomib]"
  drug sensitivity score, DSS: 12.7
